Values compiled from PubChem BioAssay (NCI).

system: U251 CNS; experiment: NCI-60 one-dose screen, 48 h (100 = growth as untreated, 0 = no growth, -100 = all killed); details: 10 µM unless noted
About 83,000 compounds went through this panel and 20% of them were active in at least one assay; those are over-represented in the sample as a whole.
Each entry below lists one item and its recorded growth value.
Write it as a number; the unit % goes unstated.

Reference set (3 entries):
[[record]]
molecule = "CN1CC(CNC(=O)OCc2ccccc2)CC2c3cccc4c3c(cn4C)CC21 (stereo not given)"
value_measured = 13.6

[[record]]
molecule = "COC(=O)[C@@]1(C)CC[C@]2(C)CC[C@]3(C)C4=CC(=O)c5c(cc(O)c(O)c5C)[C@]4(C)CC[C@@]3(C)[C@@H]2C1"
value_measured = 42

[[record]]
molecule = "Brc1ccc2c(c1)c(-c1nc(-c3c[nH]c4ncccc34)cs1)cn2CCN1CCCCC1"
value_measured = 42


[in] I'm curious: which growth was measured for C=CCc1cc2c(cc1OCC)OCO2 tested on U251 CNS?
[out] 107

[in] // lookup growth | system=U251 CNS | key= CCC1(C)CC(CCNCc2ccccc2O)(c2ccc(C)cc2)CCO1 (stereo not given)
[out] 99.1
